Target: FXR (Homo sapiens)
Construct: using a full length FXR on a natural response element; expressed in transfected cells
Sequence (Q96RI1 whole entry, species assumed): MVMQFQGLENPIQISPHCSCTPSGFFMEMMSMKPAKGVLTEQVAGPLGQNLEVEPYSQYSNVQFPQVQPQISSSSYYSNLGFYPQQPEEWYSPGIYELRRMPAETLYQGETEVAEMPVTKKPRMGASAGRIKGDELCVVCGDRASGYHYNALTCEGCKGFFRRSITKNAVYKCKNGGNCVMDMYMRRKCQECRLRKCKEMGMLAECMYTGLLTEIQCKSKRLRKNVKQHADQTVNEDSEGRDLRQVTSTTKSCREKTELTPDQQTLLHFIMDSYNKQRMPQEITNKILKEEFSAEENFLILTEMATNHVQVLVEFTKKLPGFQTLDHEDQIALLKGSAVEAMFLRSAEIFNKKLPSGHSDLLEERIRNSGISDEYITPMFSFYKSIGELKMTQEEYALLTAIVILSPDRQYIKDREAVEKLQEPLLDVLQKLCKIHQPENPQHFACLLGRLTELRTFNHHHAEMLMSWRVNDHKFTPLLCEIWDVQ
Assay: cell-based transcription assay, FXR responsive promoter linked to a luciferase reporter
Parameters: scale not given here
Conditions: Tables 1-15; RE not defined in the source
assayReadout: RE
Answer as a number with no unit attached.

Some molecules with known RE results, for comparison:
[[record]]
molecule = "COC(=O)C=Cc1cccc(N(Cc2ccc(CCC(=O)OC(C)(C)C)cc2)C(=O)C2CCCCC2)c1 [Compound 159]"
assaytarget = "FXR (Homo sapiens)"
reported = 1.56

[[record]]
molecule = "COC(=O)/C=C/c1cccc(N(Cc2ccc(-c3cccc(OC)c3)cc2)C(=O)C2CCCCC2)c1 [i]"
assaytarget = "FXR (Homo sapiens)"
reported = 1.51

[[record]]
molecule = "COC(=O)/C=C/c1cccc(N(Cc2ccc(-c3cccc(OC(F)(F)F)c3)cc2)C(=O)C2CCCCC2)c1 [Compound 253]"
assaytarget = "FXR (Homo sapiens)"
reported = 0.84

[[record]]
molecule = "COC(=O)/C=C/c1cccc(N(Cc2cc(OC)cc(OC)c2)C(=O)C2CCCCC2)c1 [Compound 116]"
assaytarget = "FXR (Homo sapiens)"
reported = 0.11

[[record]]
molecule = "CC(C)(C)OC(=O)/C=C/c1cccc(N(Cc2ccc(CCC(=O)OC(C)(C)C)cc2)C(=O)C2CCCCC2)c1 [Compound 160]"
assaytarget = "FXR (Homo sapiens)"
reported = 0.84

[[record]]
molecule = "COC(=O)/C=C/c1cccc(N(Cc2ccc(/C=C/C(=O)OC(C)(C)C)cc2)C(=O)c2ccco2)c1 [Compound 144]"
assaytarget = "FXR (Homo sapiens)"
reported = 1.93


[ask] Quick one: RE of COC(=O)/C=C/c1cccc(N(Cc2ccc(-c3c(OC)cccc3OC)cc2)C(=O)NC(C)C)c1 [Compound 258] ?
[reply] 0.10

[ask] Again, but for COC(=O)/C=C/c1cccc(N(Cc2ccc(-c3ccc4c(c3)OCO4)cc2)C(=O)C(C)C)c1 [Compound 245]
[reply] 1.25

[ask] Also need COC(=O)/C=C/c1cccc(N(Cc2ccc(-c3ccc(CC(C)C)cc3)cc2)C(=O)C(C)C)c1 [Compound 263] , thanks.
[reply] 0.59
